tested on: A549 human lung cells expressing low Bcl-2 and high Bcl-XL levels; assay: Acute cytotoxicity (apoptotic activity), Alamar Blue viability, A549 cells; type: cell-based; conditions: 4 hours at 37° C.; read-out: LC50 value in A549 cell lines
parameter: CC50

1. [O-][n+]1nc(Oc2ccccc2)ccc1Oc1ccccc1 [Example 2, 3,6-diphenoxvpyridazine-1-oxide] | > 500 µM
